assay: Phase I single-agent GDC-0077: pharmacokinetics; type: in vivo, human; conditions: human, plasma, oral; following a single dose; read-out: Mean half-life (t1/2) (converted)
MEASURED ENDPOINT: half-life (h)
Field: numeric (h). Do not append units.

Input line: Look up half-life for this molecule: C[C@H](Nc1ccc2c(c1)OCCn1cc(N3C(=O)OC[C@H]3C(F)F)nc1-2)C(N)=O [GDC-0077]
Output line: 18.1
